- Test system: MM cell line
- experiment.notes: Multiple Myeloma Assay
- Format: cell-based
- protocol.conditions: dose 0.11 μM; 72 hrs in culture
Property: viability at 0.11 µM; scope: individual compounds
measurement.type: viability at 0.11 µM (%)

In [3]: df
Out[3]:
                                smiles_repr      measurement_type   val
0     Cc1nc2ncccn2c1-c1csc(Nc2ccc(Cl)cc2)n1  viability at 0.11 µM  84.7
1   COc1ccc(Nc2nc(-c3c(C)nc4ncccn34)cs2)cc1  viability at 0.11 µM  54.9
2  COc1cc(Br)c(Nc2nc(-c3c(C)nc4ncccn34)cs2)c(Br)c1  viability at 0.11 µM  90.3
3  COCCOc1cc(Br)c(Nc2nc(-c3cnc4ccc(Cl)cn34)cs2)c(Br)c1  viability at 0.11 µM  87.9
